Entry source: patent US20110190272A1

ASSAY TARGET: CSF-1R (Homo sapiens, UniProt P07333)
Construct: The His-tagged kinase domain of CSF-1R (i.e., amino acids 568-912, GeneBank ID NM_005211); His; made in house; host or cells: baculovirus infected SF+Express insect cells
Sequence (P07333 568-912): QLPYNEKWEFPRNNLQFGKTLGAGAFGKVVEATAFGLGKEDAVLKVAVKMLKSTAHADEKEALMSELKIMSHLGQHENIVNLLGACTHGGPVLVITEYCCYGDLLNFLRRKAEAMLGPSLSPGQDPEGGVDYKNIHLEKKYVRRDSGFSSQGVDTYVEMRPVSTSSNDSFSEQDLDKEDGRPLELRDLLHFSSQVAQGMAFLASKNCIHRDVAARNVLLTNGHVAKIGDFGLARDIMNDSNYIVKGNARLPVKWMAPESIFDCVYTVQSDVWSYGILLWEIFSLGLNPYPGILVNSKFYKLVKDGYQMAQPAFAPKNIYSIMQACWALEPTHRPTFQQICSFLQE
PROTOCOL DESCRIPTION: Assay 2: CSF1R In-Vitro AlphaScreen Assay
Type: biochemical
MEASUREMENT SETUP: purified His-tagged kinase domain of CSF-1R, 12 mM ATP in mix
Protocol: Assay 2: CSF1R In-Vitro AlphaScreen Assay Activity of purified CSF-1R was determined in-vitro using an Amplified Luminescent Proximity Homogeneous Assay (ALPHA) (Perkin Elmer, Mass.), which measures phosphorylation of CSF-1R substrate, biotinylated […] peptide (pEY-HTRF CisBio 61GT0BLD), as described below. […] The phosphorylation of the CSF-1R substrate in the presence and absence of the compound of interest was determined. […]
Threshold check on IC50: strictly below 8 nM is rule met; on or above 8 nM is rule not met.

1) COc1cc2nnc(C(N)=O)c(Nc3ccc(C)cc3F)c2cc1C1CCN(C(=O)[C@H](C)O)CC1 ... rule not met
2) COc1cc2nnc(C(N)=O)c(Nc3ccc(C)cc3F)c2cc1N1C[C@@H](C)N(C(C)=O)[C@@H](C)C1 ... rule not met
3) COc1cc2nnc(C(N)=O)c(Nc3ccc(C)cc3F)c2cc1N1CCN(C[C@@H](O)CO)CC1 ... rule met
4) COc1cc2nnc(C(N)=O)c(Nc3ccc(C)cc3F)c2cc1N1CC[C@H](N(C)C)C1 ... rule met
5) COc1cc2nnc(C(N)=O)c(Nc3ccc(C)cc3F)c2cc1CN1CCOCC1 ... rule not met
6) COc1cc2nnc(C(N)=O)c(Nc3ccc(C)cc3F)c2cc1N1CCN(CCS(C)(=O)=O)CC1 ... rule met
7) Cc1ccc(Nc2c(C(N)=O)nnc3cc(N4CCN(C)CC4)ccc23)c(F)c1 ... rule met
8) COc1cc2nnc(C(N)=O)c(Nc3ccc(C)cc3F)c2cc1C1CCN(CC(F)F)CC1 ... rule not met
9) Cc1ccc(Nc2c(C(N)=O)nnc3cc(N4CCN(S(C)(=O)=O)CC4)ccc23)c(F)c1 ... rule not met
10) COc1cc2nnc(C(N)=O)c(Nc3ccc(C)cc3F)c2cc1N1CCN(C(=O)C(C)(C)O)CC1 ... rule not met
11) COCCOC1CCN(c2cc3c(Nc4ccc(C)cc4F)c(C(N)=O)nnc3cc2OC)CC1 ... rule not met
12) COc1cc2nnc(C(N)=O)c(Nc3ccc(C)cc3F)c2cc1N1C[C@@H](C)N(CCO)[C@@H](C)C1 ... rule not met
13) COc1cc2nnc(C(N)=O)c(Nc3ccc(C)cc3F)c2cc1N1CCN(C[C@H](O)CO)CC1 ... rule met
14) COc1cc2nnc(C(N)=O)c(Nc3ccc(C)cc3F)c2cc1N1CCN(C(CO)CO)CC1 ... rule met

---

ASSAY TARGET: CSF-1R (Homo sapiens)
Construct: The His-tagged kinase domain of CSF-1R (i.e., amino acids 568-912, GeneBank ID NM_005211); His; made in house; host or cells: baculovirus infected SF+Express insect cells
PROTOCOL DESCRIPTION: Assay 1: CSF-1R In Vitro AlphaScreen Assay
Format: biochemical
MEASUREMENT SETUP: purified His-tagged kinase domain of CSF-1R, 90 μM ATP
pIC50: −log10 of the molar value.
READOUT NAME: pIC50

1) COc1cc2nnc(C(N)=O)c(Nc3cccc(Cl)c3F)c2cc1OC [Example 3] ... > 8.52
